Source: ChEMBL document CHEMBL2146394

Biological target: Vascular endothelial growth factor receptor 2 (Homo sapiens)
Sequence (P35968 whole entry, the tested form may be a part): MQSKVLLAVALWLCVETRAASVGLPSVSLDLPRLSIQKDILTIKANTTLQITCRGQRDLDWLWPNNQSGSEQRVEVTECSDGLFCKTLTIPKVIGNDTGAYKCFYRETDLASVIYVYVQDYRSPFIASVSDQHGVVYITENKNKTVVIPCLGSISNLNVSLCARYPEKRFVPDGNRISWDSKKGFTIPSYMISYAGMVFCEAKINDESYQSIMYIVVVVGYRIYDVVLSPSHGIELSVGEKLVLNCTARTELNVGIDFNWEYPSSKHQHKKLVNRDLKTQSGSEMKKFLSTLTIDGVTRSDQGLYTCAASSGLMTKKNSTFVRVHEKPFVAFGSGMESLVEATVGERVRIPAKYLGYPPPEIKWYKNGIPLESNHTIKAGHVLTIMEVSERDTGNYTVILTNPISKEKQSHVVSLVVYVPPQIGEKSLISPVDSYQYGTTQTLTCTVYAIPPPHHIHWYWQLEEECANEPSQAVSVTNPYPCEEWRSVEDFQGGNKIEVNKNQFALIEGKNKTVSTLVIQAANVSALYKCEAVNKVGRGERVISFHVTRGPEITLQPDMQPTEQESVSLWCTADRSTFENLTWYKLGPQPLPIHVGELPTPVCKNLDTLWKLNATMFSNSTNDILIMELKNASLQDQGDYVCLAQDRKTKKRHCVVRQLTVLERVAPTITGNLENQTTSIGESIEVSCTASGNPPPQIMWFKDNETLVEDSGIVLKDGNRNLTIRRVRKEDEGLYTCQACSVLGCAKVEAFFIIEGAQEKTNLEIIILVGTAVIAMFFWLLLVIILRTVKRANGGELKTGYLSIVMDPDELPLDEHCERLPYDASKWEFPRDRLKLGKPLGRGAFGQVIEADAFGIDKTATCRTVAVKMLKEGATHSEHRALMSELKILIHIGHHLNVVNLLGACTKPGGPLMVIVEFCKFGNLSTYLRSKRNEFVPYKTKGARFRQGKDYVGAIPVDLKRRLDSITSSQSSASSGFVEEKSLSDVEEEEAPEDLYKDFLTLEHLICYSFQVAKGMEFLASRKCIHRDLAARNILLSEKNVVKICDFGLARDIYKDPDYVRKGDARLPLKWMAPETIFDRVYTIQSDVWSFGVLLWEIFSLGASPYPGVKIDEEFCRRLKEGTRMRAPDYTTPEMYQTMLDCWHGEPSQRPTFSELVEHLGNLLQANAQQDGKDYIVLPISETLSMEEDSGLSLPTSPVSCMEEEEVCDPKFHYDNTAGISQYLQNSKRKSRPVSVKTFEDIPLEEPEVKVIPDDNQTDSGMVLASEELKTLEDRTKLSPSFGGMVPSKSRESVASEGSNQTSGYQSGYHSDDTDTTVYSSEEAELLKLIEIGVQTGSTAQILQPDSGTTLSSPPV
Assay: Inhibition of N-terminal FLAG-tagged VEGFR2 cytoplasmic domain expressed in baculovirus after 5 mins
measurementKind: IC50

## Input Need IC50 of CC(C)(C(=O)NCCn1ccc2ncnc(Nc3ccc(Oc4cccc(Cl)c4)c(Cl)c3)c21)S(C)(=O)=O.Cc1ccc(S(=O)(=O)O)cc1 , thanks.
## Output > 10 µM

====

Biological target: Dual specificity mitogen-activated protein kinase kinase 5 (Homo sapiens, UniProt Q13163)
Sequence (Q13163 whole entry): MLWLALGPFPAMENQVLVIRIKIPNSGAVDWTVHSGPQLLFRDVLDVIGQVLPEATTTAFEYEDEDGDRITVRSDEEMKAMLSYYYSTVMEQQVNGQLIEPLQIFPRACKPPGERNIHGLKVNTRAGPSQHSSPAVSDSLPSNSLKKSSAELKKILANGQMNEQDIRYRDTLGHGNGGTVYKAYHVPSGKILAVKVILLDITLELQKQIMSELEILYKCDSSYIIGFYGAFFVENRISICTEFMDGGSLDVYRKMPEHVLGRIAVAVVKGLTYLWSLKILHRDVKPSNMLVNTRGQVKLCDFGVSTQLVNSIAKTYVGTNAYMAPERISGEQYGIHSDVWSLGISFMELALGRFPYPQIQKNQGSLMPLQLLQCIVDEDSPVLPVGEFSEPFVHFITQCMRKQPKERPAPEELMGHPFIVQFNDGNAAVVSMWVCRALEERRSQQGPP
Assay: Inhibition of N-terminal FLAG-tagged MEK5 expressed in baculovirus after 5 mins by scintillation counter
measurementKind: IC50

## Input Any idea what its IC50 is? The compound is CC(C)(C(=O)NCCn1ccc2ncnc(Nc3ccc(Oc4cccc(Cl)c4)c(Cl)c3)c21)S(C)(=O)=O.Cc1ccc(S(=O)(=O)O)cc1
## Output > 10 µM

====

Molecular target: Mitogen-activated protein kinase kinase kinase 1 (Homo sapiens, UniProt Q13233)
Sequence (Q13233 whole entry): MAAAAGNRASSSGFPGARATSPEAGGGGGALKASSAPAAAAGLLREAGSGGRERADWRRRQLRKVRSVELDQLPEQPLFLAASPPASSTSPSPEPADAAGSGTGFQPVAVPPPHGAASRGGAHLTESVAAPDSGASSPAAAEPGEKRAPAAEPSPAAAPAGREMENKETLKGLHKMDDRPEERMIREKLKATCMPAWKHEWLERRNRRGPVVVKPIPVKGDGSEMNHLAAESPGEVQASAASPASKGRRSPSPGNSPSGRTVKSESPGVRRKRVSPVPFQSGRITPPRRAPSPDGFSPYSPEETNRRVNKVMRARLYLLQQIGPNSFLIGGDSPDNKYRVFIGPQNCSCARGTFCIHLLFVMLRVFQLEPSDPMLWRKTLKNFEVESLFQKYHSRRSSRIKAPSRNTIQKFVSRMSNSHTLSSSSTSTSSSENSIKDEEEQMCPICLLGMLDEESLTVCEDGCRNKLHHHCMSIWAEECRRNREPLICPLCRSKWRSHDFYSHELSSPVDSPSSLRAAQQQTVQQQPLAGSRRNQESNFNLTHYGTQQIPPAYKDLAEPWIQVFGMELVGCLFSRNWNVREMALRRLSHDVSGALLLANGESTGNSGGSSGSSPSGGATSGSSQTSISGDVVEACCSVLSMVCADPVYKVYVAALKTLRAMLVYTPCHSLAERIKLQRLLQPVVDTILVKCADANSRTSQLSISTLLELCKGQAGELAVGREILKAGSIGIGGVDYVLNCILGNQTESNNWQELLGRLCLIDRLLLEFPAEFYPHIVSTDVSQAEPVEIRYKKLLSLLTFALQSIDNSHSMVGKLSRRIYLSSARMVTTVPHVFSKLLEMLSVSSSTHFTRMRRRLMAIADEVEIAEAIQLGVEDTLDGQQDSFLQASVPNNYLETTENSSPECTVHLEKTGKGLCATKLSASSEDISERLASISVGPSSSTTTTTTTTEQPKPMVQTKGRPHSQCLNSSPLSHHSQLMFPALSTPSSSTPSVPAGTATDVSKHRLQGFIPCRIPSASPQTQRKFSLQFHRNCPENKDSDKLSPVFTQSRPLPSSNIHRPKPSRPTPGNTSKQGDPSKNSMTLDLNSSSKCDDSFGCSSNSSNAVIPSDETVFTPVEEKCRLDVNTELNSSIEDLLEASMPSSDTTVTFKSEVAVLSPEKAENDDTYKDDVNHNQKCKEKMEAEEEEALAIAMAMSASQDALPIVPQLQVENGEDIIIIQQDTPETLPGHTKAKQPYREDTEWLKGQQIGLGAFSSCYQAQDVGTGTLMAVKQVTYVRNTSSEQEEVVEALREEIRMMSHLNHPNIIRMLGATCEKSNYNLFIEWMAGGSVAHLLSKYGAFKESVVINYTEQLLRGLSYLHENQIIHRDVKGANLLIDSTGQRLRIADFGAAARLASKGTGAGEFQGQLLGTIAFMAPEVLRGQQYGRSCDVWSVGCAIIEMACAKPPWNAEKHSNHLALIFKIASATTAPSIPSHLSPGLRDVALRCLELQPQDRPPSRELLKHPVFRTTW
Assay: Inhibition of C-terminal FLAG-tagged MEKK expressed in baculovirus after 5 mins by scintillation counter
pIC50: −log10 of the molar value.
measurementKind: pIC50

## Input pIC50 lookup needed for CC(C)(C(=O)NCCn1ccc2ncnc(Nc3ccc(Oc4cccc(Cl)c4)c(Cl)c3)c21)S(C)(=O)=O.Cc1ccc(S(=O)(=O)O)cc1 , thanks.
## Output < 5.00

====

Biological target: Serine/threonine-protein kinase PLK1 (Homo sapiens)
Sequence (P53350 whole entry): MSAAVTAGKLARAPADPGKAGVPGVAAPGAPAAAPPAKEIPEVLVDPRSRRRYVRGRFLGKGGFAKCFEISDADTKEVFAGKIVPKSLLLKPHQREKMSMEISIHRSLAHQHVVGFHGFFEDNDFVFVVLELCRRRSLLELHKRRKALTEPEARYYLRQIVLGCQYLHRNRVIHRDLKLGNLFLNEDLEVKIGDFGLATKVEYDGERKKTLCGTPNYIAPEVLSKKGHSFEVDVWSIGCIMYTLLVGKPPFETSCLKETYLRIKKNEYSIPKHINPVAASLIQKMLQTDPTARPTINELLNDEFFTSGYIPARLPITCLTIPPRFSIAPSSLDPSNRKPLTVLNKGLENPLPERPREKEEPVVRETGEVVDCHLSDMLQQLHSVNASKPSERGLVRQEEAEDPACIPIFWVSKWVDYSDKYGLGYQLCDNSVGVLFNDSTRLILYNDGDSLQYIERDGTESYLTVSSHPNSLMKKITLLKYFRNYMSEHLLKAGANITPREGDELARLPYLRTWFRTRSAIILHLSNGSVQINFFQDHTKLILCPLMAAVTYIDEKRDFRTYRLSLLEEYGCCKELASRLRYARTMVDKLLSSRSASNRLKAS
Assay: Inhibition of N-terminal FLAG-tagged PLK1 expressed in baculovirus after 5 mins by scintillation counter
pIC50: −log10 of the molar value.
measurementKind: pIC50

## Input Query pIC50 on Serine/threonine-protein kinase PLK1 (Homo sapiens) for CC(C)(C(=O)NCCn1ccc2ncnc(Nc3ccc(Oc4cccc(Cl)c4)c(Cl)c3)c21)S(C)(=O)=O.Cc1ccc(S(=O)(=O)O)cc1
## Output < 5.00

====

Assay: Metabolic stability in mouse hepatic microsomes at 1 umol/L after 20 mins
Type: ADME
Details: liver microsomes, read-out: Stability
measurementKind: microsomal CLint at 1 µM

## Input I am curious: what microsomal CLint at 1 µM value has been reported for CC(C(=O)NCCn1ccc2ncnc(Nc3ccc(Oc4cccc(C(F)(F)F)c4)c(Cl)c3)c21)S(C)(=O)=O (stereo unspecified) ?
## Output 33 µL/min/mg

## Input Record: CC(C)(C)S(=O)(=O)CC(=O)NCCn1ccc2ncnc(Nc3ccc(Oc4cccc(C(F)(F)F)c4)c(Cl)c3)c21
## Output 31 µL/min/mg

## Input Same for CCS(=O)(=O)CC(=O)NCCn1ccc2ncnc(Nc3ccc(Oc4cccc(C(F)(F)F)c4)c(Cl)c3)c21
## Output 22 µL/min/mg

## Input Now the same for CC(C)S(=O)(=O)CC(=O)NCCn1ccc2ncnc(Nc3ccc(Oc4cccc(C(F)(F)F)c4)c(Cl)c3)c21
## Output 35 µL/min/mg

## Input Cool, now CS(=O)(=O)CC(=O)NCCn1ccc2ncnc(Nc3ccc(Oc4cccc(C(F)(F)F)c4)c(Cl)c3)c21
## Output 11 µL/min/mg

## Input CC(C)(C(=O)NCCn1ccc2ncnc(Nc3ccc(Oc4cccc(C(F)(F)F)c4)c(Cl)c3)c21)S(C)(=O)=O ?
## Output 23 µL/min/mg
